Consider the following molecules; for each one, report its mass density.
- Test parameters: 353.15 K; 40000 kPa; Liquid; Vibrating tube method
Give the quantity in kg/m3, number only.

# input Query: mass density; subject: CCCCCCCCC(=O)OC [methyl nonanoate]
# output 855.87

# input Item under review: CCCCCCCC(=O)OC [methyl octanoate] . Reported mass density?
# output 857.88

# input Would you mind telling me what mass density value was observed for CCCCCCC(=O)OC [methyl heptanoate] ?
# output 860.37

# input Tell me the measured mass density of CCCCCC(=O)OC [methyl hexanoate] , please.
# output 863.59

# input Need mass density, item CCCC(=O)OC [methyl butanoate]
# output 873.76

# input // returns reported mass density for input CCCCC(=O)OC [methyl pentanoate]
# output 868

###

- Test parameters: 323.15 K; 20000 kPa; Liquid; Vibrating tube method
Measured quantity: mass density (kg/m3)
// units = kg/m3; emit number, no label

# input Would you mind telling me what mass density value was observed for CCCCCCCCC(=O)OC [methyl nonanoate] ?
# output 863.98

# input What mass density value was documented for this compound, CCCC(=O)OC [methyl butanoate] ?
# output 884.63

# input Requested read-out: mass density. Entry: CCCCCC(=O)OC [methyl hexanoate]
# output 872.98

# input Given the compound CCCCCCCC(=O)OC [methyl octanoate] , what is its reported mass density?
# output 866.24

# input Which mass density is reported for this compound? CCCCCCC(=O)OC [methyl heptanoate]
# output 869.08

# input Field request: mass density | item: CCCCC(=O)OC [methyl pentanoate]
# output 877.67

###

- Test parameters: 323.15 K; 10000 kPa; Liquid; Vibrating tube method
Measured quantity: mass density (kg/m3)
Unit kg/m3 implied. Number only.

# input Query (compound): CCCCCCC(=O)OC [methyl heptanoate] ; field requested: mass density
# output 860.97

# input I'd like to know its mass density. The compound in question is CCCCCC(=O)OC [methyl hexanoate]
# output 864.44

# input // query mass density value for entry CCCC(=O)OC [methyl butanoate]
# output 875.02

# input Query: mass density; subject: CCCCC(=O)OC [methyl pentanoate]
# output 868.67

# input Which mass density is reported for this compound? CCCCCCCC(=O)OC [methyl octanoate]
# output 858.46

# input Requested read-out: mass density. Entry: CCCCCCCCC(=O)OC [methyl nonanoate]
# output 856.42

###

- Test parameters: 343.15 K; 50000 kPa; Liquid; Vibrating tube method
Please respond with reported mass density for every item in the list.
State the answer as a number, implicitly in kg/m3.

# input mass density lookup needed for CCCCCCCCC(=O)OC [methyl nonanoate] , thanks.
# output 869.47

# input Any idea what its mass density is? The compound is CCCCCCCC(=O)OC [methyl octanoate]
# output 872.01

# input Give the measured mass density of CCCCC(=O)OC [methyl pentanoate] .
# output 884.03

# input For the compound CCCC(=O)OC [methyl butanoate] , what mass density is on record?
# output 890.89

# input mass density lookup needed for CCCCCC(=O)OC [methyl hexanoate] , thanks.
# output 878.77

# input Give the measured mass density of CCCCCCC(=O)OC [methyl heptanoate] .
# output 875

###

- Test parameters: 353.15 K; 60000 kPa; Liquid; Vibrating tube method
Measured quantity: mass density (kg/m3)
// return numeric value only (unit: kg/m3, not printed)

# input // query mass density value for entry CCCC(=O)OC [methyl butanoate]
# output 890.18

# input Can you share its mass density? I mean this compound: CCCCCCC(=O)OC [methyl heptanoate]
# output 874.32

# input mass density lookup needed for CCCCCC(=O)OC [methyl hexanoate] , thanks.
# output 878.16

# input Would you kindly share the measured mass density for CCCCCCCC(=O)OC [methyl octanoate] ?
# output 871.35

# input mass density lookup needed for CCCCCCCCC(=O)OC [methyl nonanoate] , thanks.
# output 868.9

# input # mass density lookup, item CCCCC(=O)OC [methyl pentanoate]
# output 883.37

###

- Test parameters: 303.15 K; 1000 kPa; Liquid; Vibrating tube method
Measured quantity: mass density (kg/m3)
// note: answer is a bare numeric in kg/m3

# input Return reported mass density; argument: CCCCCCC(=O)OC [methyl heptanoate]
# output 871.46

# input Any idea what mass density was measured for CCCC(=O)OC [methyl butanoate] ?
# output 887.75

# input Quick one: mass density of CCCCC(=O)OC [methyl pentanoate] ?
# output 880.52

# input If you can, please state the reported mass density value of CCCCCCCC(=O)OC [methyl octanoate] .
# output 868.42

# input What value of mass density has been reported for the following molecule? CCCCCCCCC(=O)OC [methyl nonanoate]
# output 866.39

# input Can you share its mass density? I mean this molecule: CCCCCC(=O)OC [methyl hexanoate]
# output 875.42

###

- Test parameters: 343.15 K; 3000 kPa; Liquid; Vibrating tube method
± gives the expanded uncertainty stated by the source.
Measured quantity: mass density
Kindly format the answer as number then unit.

# input // lookup mass density for CCCC(=O)OC [methyl butanoate]
# output 844.95 ± 0.88 kg/m3

# input Value lookup for mass density; key = CCCCCCCC(=O)OC [methyl octanoate]
# output 835.25 ± 0.87 kg/m3

# input Request the reported mass density associated with CCCCCC(=O)OC [methyl hexanoate]
# output 838.54 ± 0.87 kg/m3

# input Data request, read-out mass density, for CCCCCCC(=O)OC [methyl heptanoate]
# output 836.7 ± 0.87 kg/m3

# input Which mass density is listed for CCCCCCCCC(=O)OC [methyl nonanoate] ?
# output 834.1 ± 0.87 kg/m3

# input Dear colleague, I am looking for the recorded mass density of the following compound: CCCCC(=O)OC [methyl pentanoate]
# output 841.41 ± 0.87 kg/m3

###

Please provide measured mass density for the entries that follow.
- Test parameters: 333.15 K; 25000 kPa; Liquid; Vibrating tube method
The response must be a number in kg/m3 with no trailing unit.

# input mass density lookup needed for CCCCCCC(=O)OC [methyl heptanoate] , thanks.
# output 864.64

# input Fill in the blank: the reported mass density of CCCC(=O)OC [methyl butanoate] is ____.
# output 879.2

# input I am curious: what mass density value has been reported for CCCCCCCCC(=O)OC [methyl nonanoate] ?
# output 859.9

# input Which mass density reading was recorded for the compound CCCCCC(=O)OC [methyl hexanoate] ?
# output 868.18

# input Field request: mass density | item: CCCCC(=O)OC [methyl pentanoate]
# output 872.72

# input Using the record for CCCCCCCC(=O)OC [methyl octanoate] , report its mass density.
# output 862.06

###

- Test parameters: 353.15 K; 35000 kPa; Liquid; Vibrating tube method
Please go through the items and note down their mass density.
Use kg/m3 as the unit, but write only the number.

# input // mass density lookup, key: CCCCCCCC(=O)OC [methyl octanoate]
# output 854.32

# input Name the reported mass density value associated with the compound CCCCC(=O)OC [methyl pentanoate]
# output 863.9

# input Requested read-out: mass density. Entry: CCCC(=O)OC [methyl butanoate]
# output 869.35

# input I have this compound here, CCCCCCCCC(=O)OC [methyl nonanoate] , and I need its recorded mass density.
# output 852.44

# input Item CCCCCCC(=O)OC [methyl heptanoate] has what recorded mass density?
# output 856.65

# input Field request: mass density | item: CCCCCC(=O)OC [methyl hexanoate]
# output 859.68

###

I'd appreciate it if you could supply mass density values for the items below.
- Test parameters: 293.15 K; 20000 kPa; Liquid; Vibrating tube method
Numbers after ± are expanded uncertainties.
Number first, unit second.

# input Value lookup for mass density; key = CCCCCC(=O)OC [methyl hexanoate]
# output 898.81 ± 0.94 kg/m3

# input Look at this compound and give its reported mass density. CCCCC(=O)OC [methyl pentanoate]
# output 905.28 ± 0.95 kg/m3

# input Given CCCCCCC(=O)OC [methyl heptanoate] , state its recorded mass density.
# output 893.86 ± 0.94 kg/m3

# input Fill in the blank: the reported mass density of CCCCCCCCC(=O)OC [methyl nonanoate] is ____.
# output 887.23 ± 0.93 kg/m3

# input Fill blank: measured mass density of the compound CCCC(=O)OC [methyl butanoate] is ____.
# output 914.51 ± 0.95 kg/m3

# input What does the data say about its mass density? Entry: CCCCCCCC(=O)OC [methyl octanoate]
# output 890.07 ± 0.94 kg/m3

###

Answer each item with its documented mass density.
- Test parameters: 363.15 K; 30000 kPa; Liquid; Vibrating tube method
Write down the numeric answer in kg/m3 and omit the unit.

# input Look at this compound and give its reported mass density. CCCCCCCCC(=O)OC [methyl nonanoate]
# output 841.4

# input Look up mass density for this compound: CCCCC(=O)OC [methyl pentanoate]
# output 850.57

# input Query: mass density; subject: CCCCCC(=O)OC [methyl hexanoate]
# output 847.27

# input mass density for CCCC(=O)OC [methyl butanoate] ?
# output 854.68

# input Field request: mass density | item: CCCCCCC(=O)OC [methyl heptanoate]
# output 845.01

# input Form field: reported mass density of CCCCCCCC(=O)OC [methyl octanoate]
# output 843.09

Where do the numbers come from? From the NIST ThermoML archive (doi:10.1016/j.fluid.2018.04.024).
